Reference source for all entries: ChEMBL document CHEMBL2177078

experiment: Displacement of [3H]di-o-tolylguanidine from Sigma2 receptor in rat brain homogenate; assay type: tissue-based
attribute_measured: pKi
Numbers only, as −log10 of the molar value.

Query: Specify reported pKi for the compound shown: CCCc1ccc2c(c1)sc(=O)n2CCN1CCCCCC1
Response: 6.20

###

Exercise: for every item that follows, state its recorded Ki.
assay: Displacement of [3H]di-o-tolylguanidine from Sigma2 receptor in rat liver homogenate; assay type: tissue-based
Answers are plain numbers, in µM.

Query: Give recorded Ki. O=c1sc2cc(CCCF)ccc2n1CCN1CCCCCC1
Response: 0.467

***
Query: Quick one: give measured Ki for CCCc1ccc2c(c1)sc(=O)n2CCN1CCCCCC1
Response: 0.247
